molecular target: Solute carrier family 2, facilitated glucose transporter member 1 (Homo sapiens); experiment: ST_JUDE_LEISH: Cytotoxicity at 2uM final concentration against transgenic Leishmania Mexicana promastigotes LmGLUT1 that are glucose transport deficient and complemented with the human glucose transporter GLUT1. Activity is measured by DNA content using SYBR green in vitro; assay type: functional
Observable: inhibition (%)
Give bare numbers, in %.

# example entries with known answers
-- ask I am curious: what inhibition value has been reported for COc1cc(/C=N/Nc2nc(Nc3ccccc3)nc(Nc3ccccc3)n2)ccc1OCc1ccccc1[N+](=O)[O-] ?
-- reply 4.18

-- ask Here is the next compound: C#CCNC(=O)c1ccc(-c2ccnc(Nc3cccc(CCCN4CCOCC4)c3)n2)s1
-- reply 37.4

-- ask Same question, CC(C)CC(=O)NC1CCN(Cc2c(-c3cccs3)nc3ccccc3c2C(=O)N[C@@H](C)C2CCCCC2)CC1 this time
-- reply 6.03

-- ask Again, but for CSc1ccc2ccccc2c1CCNCCCCNCCc1c(SC)ccc2ccccc12
-- reply 68.9

-- ask Same question for NOCCCOc1ccccc1 please.
-- reply 0.04

Report inhibition for every entry below.
1. CN(C)CCNc1cc(-c2cccnc2)nc(-c2ccncc2)n1
2. CN1CCC=C(C(=O)NCC(C)(C)c2nc(-c3ccc(Cl)c(O)c3)c(-c3ccncc3)[nH]2)C1
3. Cc1noc(C)c1-c1cccc(C(=O)NC2CCN(CCNC(=O)C(c3ccccc3)c3ccccc3)CC2)c1
4. NS(=O)(=O)c1cccc(Nc2nc(N[C@@H]3CCNC3)nc3cc[nH]c(=O)c23)c1

-- reply
1: -1.31; 2: 6.76; 3: 2.71; 4: 4.84
